# SYSTEM_NAME: T1, Full length mouse CD98hc on CHO cells (mouse, UniProt P10852 1-526)
# T1 construct: CHO cells stably overexpressing it; also called CHO-mouse CD98hc; CHO-mCD98hc
# T1 sequence: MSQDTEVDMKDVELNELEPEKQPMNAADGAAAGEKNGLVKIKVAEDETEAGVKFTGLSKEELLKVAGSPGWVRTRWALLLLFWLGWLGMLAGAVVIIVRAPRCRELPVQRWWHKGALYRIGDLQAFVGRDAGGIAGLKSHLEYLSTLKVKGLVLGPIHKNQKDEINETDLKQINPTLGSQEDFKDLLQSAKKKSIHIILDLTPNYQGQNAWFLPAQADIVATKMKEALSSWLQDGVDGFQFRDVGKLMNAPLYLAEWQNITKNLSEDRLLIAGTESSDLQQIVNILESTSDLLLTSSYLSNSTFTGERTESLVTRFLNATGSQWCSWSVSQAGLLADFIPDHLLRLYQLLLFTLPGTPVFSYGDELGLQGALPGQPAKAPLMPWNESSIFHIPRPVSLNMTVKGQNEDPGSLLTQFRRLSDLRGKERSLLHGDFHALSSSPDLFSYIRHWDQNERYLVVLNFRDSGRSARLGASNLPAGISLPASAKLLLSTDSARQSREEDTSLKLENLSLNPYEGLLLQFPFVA
# EXPERIMENT_DESCRIPTION: FACS, hybridoma supernatant
MEASUREMENT_TYPE: binding result

Below, 9 binders whose answers are already recorded.
CD98HC.04.003 (antibody, V domains shown, hybridoma IgG) VH: QVQLQQSGAELAKPGASLKMSCKASGYTFTDYYIHWVKQRPGQDLEWIGYINPNSAYTDSNQKFKDKATLTADKSSNTAYMQLSSLTSEDSAVYYCARKGHFYAPSFAYWGQGTLVTVSA VL: DIQMTQTTSSLSASLGDRVTISCRASQDISNYLNWYQQKPDGTVKLLIYYTSRLHSGVPSRFSGSGSGADYSLTISNLQQEDIATYFCQQGDTLPYTFGGGTKLEIE ... no binding
CD98HC.04.062 (antibody, V domains shown, hybridoma IgG) VH: EVQLVESGGDLVKPGGSLKLSCTASRFAFSTYDMSWVRQTPEKRLEWVAYISSGGGSTYFPDTVKGRFTISRDNAKNTLYLQMSSLKSEDTAMYYCARQDGHYPWFPYWGQGTLVTVSA VL: DIVMSQSPSSLAVSVGEKVTMSCKSSQSLLYSGNQKTYLAWYQQKPGQSPKPLIYWASTRESGIPDRFTGSGSGTDFTLTISSVKAEDLAVYYCQQYYSYPPTFGAGTKLELK ... no binding
CD98HC.04.012 (antibody, V domains shown, hybridoma IgG) VH: QVQLQQSGADLVRPGDSVKISCKGSGYTFTDNTLHWVKQSHAKSLEWIGVISPYYGDASYNQKFKGKATMTVDKSSSTAYMELARLTSEDSAIYYCARVGGRLRLGYYFDHWGQGTTLTVSS VL: NIMMTQSPSSLAVSAGEKVTMNCKSSQSVLSSSNQKNYLAWYQQKPGQSPKLLIYWASTRESGVPARFTGSGSGTDFSLTITSVQAEDLAVYYCLQYLSSYTFGGGTKLEIK ... no binding
CD98HC.03.002 (antibody, V domains shown, hybridoma IgG) VH: DVQLVESGGGLVQPGGSRKLSCAASGFTFSTFGMHWVRQAPEKGLEWVAYISGGSTNIYYADTVKGRFTISRDNPKNTLFLQMTSLRSEDTAMYYCARETTLLATNFDYWGQGTTLTVSS VL: DIQMTQTTSSLSASLGDRVTISCRASQDISNYLNWYQQKPDGTVKLLIYYTSRLHSGVPSRFSGSGSGTDYSLTISNLEQEDIATYFCQQGSTLPRTFGGGTKLEIK ... no binding
CD98HC.03.010 (antibody, V domains shown, hybridoma IgG) VH: EVQLQQSGTELVKPGASVKLSCTASGLDIKDTYLHWVKQRPEQGLEWIGKIDPANGNTKYNPKFQGKATITADTSSNTAYLQLSSLTSEDTAVHYCTTPYYSGSSYGDYWGQGTTLTVSS VL: QIVLTQSPAIMSASPGEKVTLTCSASSSVSSSYLYWYQQKPGSSPKLWIYSTSNLASGVPARFSGSGSGTSYSLTISSMEAEDAASYFCHQWSRYPLTFGAGTKLELK ... no binding
CD98HC.04.022 (antibody, V domains shown, hybridoma IgG) VH: EVQLQQSGAELVKPGASVKLSCTASGFNIKDTFMHWMKQRPEQGLEWIGRIDPANANTRYDPKFQGKATITTDTSSNTAYLQLSSLTSEDTAVYYCARDVYYDVWGAGTTVTVSS VL: DILMTQSPSSMSVSLGDTVTITCHASQGISSNIGWLQQKPGRSFKGLIYHGSNLEDGVPSRFTGSGSGTDYSLTISGLESEDFADYYCVQYAQFPRTFGGGTKLEIQ ... no binding
CD98HC.04.046 (antibody, V domains shown, hybridoma IgG) VH: QIQLVQSGPVLKKPGETVKISCKASGYTFTNFGMNWVKQAPGKGLKWMGWIDTYTREPTYVDDFKGRFAFSLETSVTTAYLQINDLKNEDSATYFCARGESHWYFDVWGAGTTVTVSS VL: QIVLTQSPAIMSASLGERVTMTCIVSSSVSSSYLYWYQQKPGSSPKLWIYSTSILASGVPGRFSGSGSGTSYSLTISSMEAEDAATYYCHQYHRSPPTFGGGTKLEIK ... no binding
CD98HC.03.031 (antibody, V domains shown, hybridoma IgG) VH: QVQLQQSGAELVRPGVSVKISCKASGYTFTDYAMHWVKQSHAKSLEWIGVISTYYGDTTYNQKFKDKATMTVDKSSSTAYLELARLTSEDSAIYYCARVWLLSYAMDNWGQGTSVTVSS VL: DIVMTQSQRFMSTSVGDGVRITCKASQNVRTAVAWYQQKPGQSPKALINLAPNRHTGVPDRFTARGSGTDFTLTISNVQSEDLADYFCLQHWNYPLTFGAGTKLELK ... no binding
CD98HC.04.006 (antibody, V domains shown, hybridoma IgG) VH: EVNLVESGGDLVQPGGSLRLSCATSGFTFTDYFMSWVRQPPGKALEWLGFIRNKAYGYTTEYSASVKGRFTISRDNSQSIFYLQMNTLRLEDSATYYCARGPFISTAPFAYWGQGTLVTVSA VL: DIVMSQSPSSLAVSVGETVTMSCKSSQSLLYSSNQKNYLAWYQQKPGQSPKLLIYWGSTRESGVPDRFTGSGSGTDFTLTISSVKAEDLAVYYCQHYYGYPWTFGGGTKLEIK ... no binding

Problem: Report binding result for CD98HC.04.065 (antibody, V domains shown, hybridoma IgG) VH: EVQLQESGPSLVKPSQTLSLTCSVTGDSITSGYWNWIRKFPGNKLEYMGYISYSGRTYYNPSLKSRVSITRDTSKNQYYLQLNSVTTEDTATYYCQRHVIYDYTWFAYWGQGTLVTVSA VL: QIVLTQSPAIMSASPGEKVTISCSASSSVHYMYWFQQKPGSSPKPWIYRTSILASGVPDRFSGSGSGTSYSLTISSMEAEDAATYYCQQYQSYPLTFGAGTKLELK please.
Solution: no binding

The values you see were collected from patent US20250270341A1.
